Biological target: human MCU and EMRE reconstituted in yeast mitochondria (HsMCU/EMRE) (Homo sapiens, UniProt Q8NE86)
Sequence (Q8NE86 51-351): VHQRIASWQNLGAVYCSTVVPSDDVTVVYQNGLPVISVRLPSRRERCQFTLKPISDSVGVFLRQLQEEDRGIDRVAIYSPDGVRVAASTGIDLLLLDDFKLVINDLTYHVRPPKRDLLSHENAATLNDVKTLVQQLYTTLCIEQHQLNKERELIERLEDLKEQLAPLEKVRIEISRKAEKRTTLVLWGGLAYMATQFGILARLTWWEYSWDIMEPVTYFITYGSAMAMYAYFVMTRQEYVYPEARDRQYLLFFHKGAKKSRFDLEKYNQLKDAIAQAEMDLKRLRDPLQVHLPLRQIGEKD
Sequence (Q9H4I9 53-107 partner): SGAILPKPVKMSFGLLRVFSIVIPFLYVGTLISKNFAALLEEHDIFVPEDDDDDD
Assay: aequorin Ca2+ uptake rate in isolated yeast mitochondria, Hill fit
Catalogue of compounds with associated pIC50
Field pIC50 (float): negative decimal logarithm of the concentration in molar.

Previously resolved entries follow.
>>> recorded_value("O=C1c2c(O)ccc(O)c2C(=O)c2c(NCCNCCO)ccc(NCCNCCO)c21 [mitoxantrone]")
5.08
>>> recorded_value("NCCNc1ccc(NCCN)c2c1C(=O)c1ccncc1C2=O [pixantrone]")
4.82

Please look up its pIC50: Nc1ccc(NCCNCCO)c2c1C(=O)c1c(O)ccc(O)c1C2=O [impurity A]
4.44
